# test-summary: Intrinsic aqueous solubility of the compound in PBS buffer at pH 7.4 measured after 72 hrs by LC-MS analysis
# Format: physicochemical
# condition-parameters: read-out: Intrinsic_solubility
Label rule, in plain words: solubility at 72 h of 4 µg/mL and up is Yes, under 4 µg/mL is No.

smiles-string	answer-label
CCCCOc1cccc(CC(=O)Nc2ccc(CCCCc3nnc(NC(=O)C4CC(F)(F)C4)s3)nn2)c1	Yes
C=CCCCCOc1cccc(CC(=O)Nc2ccc(CCCCc3nnc(NC(=O)CCC=C)s3)nn2)c1	No
CCCCCOc1cccc(CC(=O)Nc2ccc(CCCCc3nnc(NC(=O)C4CC4)s3)nn2)c1	No
CCCCOc1cccc(CC(=O)Nc2ccc(CCCCc3nnc(NC(=O)C4CC4)s3)nn2)c1	No

====

# study-system: Glutaminase kidney isoform, mitochondrial (Homo sapiens)
# Sequence (O94925 whole entry, canonical isoform): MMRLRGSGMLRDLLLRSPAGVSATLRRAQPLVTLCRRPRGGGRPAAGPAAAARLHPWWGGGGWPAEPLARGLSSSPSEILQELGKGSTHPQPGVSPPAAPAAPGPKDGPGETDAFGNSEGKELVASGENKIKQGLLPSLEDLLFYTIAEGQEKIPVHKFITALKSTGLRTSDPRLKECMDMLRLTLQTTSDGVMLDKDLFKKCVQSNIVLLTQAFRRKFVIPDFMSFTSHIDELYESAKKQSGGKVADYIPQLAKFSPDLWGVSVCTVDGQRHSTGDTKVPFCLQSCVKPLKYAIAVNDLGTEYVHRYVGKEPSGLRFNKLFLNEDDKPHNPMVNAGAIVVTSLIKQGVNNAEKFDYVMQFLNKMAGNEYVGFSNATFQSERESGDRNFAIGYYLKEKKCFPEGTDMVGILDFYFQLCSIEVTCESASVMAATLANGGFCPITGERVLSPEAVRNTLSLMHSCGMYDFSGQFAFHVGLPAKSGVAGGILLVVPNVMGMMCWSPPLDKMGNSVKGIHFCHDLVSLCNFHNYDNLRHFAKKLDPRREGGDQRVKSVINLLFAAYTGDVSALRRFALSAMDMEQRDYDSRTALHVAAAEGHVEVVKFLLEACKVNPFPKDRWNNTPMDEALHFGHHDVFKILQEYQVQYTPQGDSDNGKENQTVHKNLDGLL
# test-summary: Inhibition of GLS1 (unknown origin) preincubated for 10 mins followed by glutamine addition measured after 60 mins
# strict inequality: IC50 < 80 nM yields True, everything else yields False

compound	study-system	answer-label
C=CCCCCOc1cccc(CC(=O)Nc2ccc(CCCCc3nnc(NC(=O)CCC=C)s3)nn2)c1	Glutaminase kidney isoform, mitochondrial (Homo sapiens)	True
CCCCC(=O)Nc1nnc(CCCCc2ccc(NC(=O)Cc3cccc(OC)c3)nn2)s1	Glutaminase kidney isoform, mitochondrial (Homo sapiens)	False
C#CCCC(=O)Nc1nnc(CCCCc2ccc(NC(=O)Cc3cccc(OC(=O)CCC#C)c3)nn2)s1	Glutaminase kidney isoform, mitochondrial (Homo sapiens)	False
CCCCOc1cccc(CC(=O)Nc2ccc(OC3CC4CCC(C3)N4c3nnc(NC(=O)CCCC)s3)nn2)c1 (stereo not drawn)	Glutaminase kidney isoform, mitochondrial (Homo sapiens)	False
CCCCOc1cccc(CC(=O)Nc2ccc(N3CCC(Nc4nnc(NC(=O)CCCC)s4)CC3)nn2)c1	Glutaminase kidney isoform, mitochondrial (Homo sapiens)	True
CCCCOc1cccc(CC(=O)Nc2ccc(CCCCc3nnc(NC(=O)C4CC(F)(F)C4)s3)nn2)c1	Glutaminase kidney isoform, mitochondrial (Homo sapiens)	True
C#CCCC(=O)Nc1nnc(CCCCc2ccc(NC(=O)Cc3cccc(OCCC=C)c3)nn2)s1	Glutaminase kidney isoform, mitochondrial (Homo sapiens)	False
CCCCCCCCOc1cccc(CC(=O)Nc2ccc(CCCCc3nnc(NC(=O)CCCC)s3)nn2)c1	Glutaminase kidney isoform, mitochondrial (Homo sapiens)	True
C=CCCCCOc1cccc(CC(=O)Nc2ccc(CCCCc3nnc(N)s3)nn2)c1	Glutaminase kidney isoform, mitochondrial (Homo sapiens)	False
CCCCCCOc1cccc(CC(=O)Nc2ccc(CCCCc3nnc(NC(=O)C4CC(F)(F)C4)s3)nn2)c1	Glutaminase kidney isoform, mitochondrial (Homo sapiens)	True
CCCCCCOc1cccc(CC(=O)Nc2ccc(CCCCc3nnc(NC(=O)CCCC)s3)nn2)c1	Glutaminase kidney isoform, mitochondrial (Homo sapiens)	True
C=CCCC(=O)Nc1nnc(CCCCc2ccc(NC(=O)Cc3cccc(O)c3)nn2)s1	Glutaminase kidney isoform, mitochondrial (Homo sapiens)	False
CCCCOc1cccc(CC(=O)Nc2ccc(CCCCc3nnc(NC(=O)C4CC4)s3)nn2)c1	Glutaminase kidney isoform, mitochondrial (Homo sapiens)	False
C=CCCOc1cccc(CC(=O)Nc2ccc(N3CCC(Nc4nnc(NC(=O)CCC=C)s4)CC3)nn2)c1	Glutaminase kidney isoform, mitochondrial (Homo sapiens)	True
CCCCCNc1cccc(CC(=O)Nc2ccc(CCCCc3nnc(NC(=O)CCCC)s3)nn2)c1	Glutaminase kidney isoform, mitochondrial (Homo sapiens)	False
CCCCCOc1cccc(CC(=O)Nc2ccc(CCCCc3nnc(NC(=O)C4CC4)s3)nn2)c1	Glutaminase kidney isoform, mitochondrial (Homo sapiens)	True
C=CCCCOc1cccc(CC(=O)Nc2nnc(CCCCc3ccc(NC(=O)CCC=C)nn3)s2)c1	Glutaminase kidney isoform, mitochondrial (Homo sapiens)	True
CCCCCOc1cccc(CC(=O)Nc2ccc(CCCCc3nnc(NC(=O)CCCC)s3)nn2)c1	Glutaminase kidney isoform, mitochondrial (Homo sapiens)	True
C#CCCC(=O)Nc1nnc(CCCCc2ccc(NC(=O)Cc3cccc(O)c3)nn2)s1	Glutaminase kidney isoform, mitochondrial (Homo sapiens)	False
C=CCCCCOc1cccc(CC(=O)Nc2ccc(CCCCc3nnc(NC(=O)C4CC(F)(F)C4)s3)nn2)c1	Glutaminase kidney isoform, mitochondrial (Homo sapiens)	True
C=CCCOc1cccc(CC(=O)Nc2ccc(CCCCc3nnc(NC(=O)CCC=C)s3)nn2)c1	Glutaminase kidney isoform, mitochondrial (Homo sapiens)	False
C=CCCC(=O)Nc1nnc(CCCCc2ccc(NC(=O)Cc3cccc(OC(=O)CCC=C)c3)nn2)s1	Glutaminase kidney isoform, mitochondrial (Homo sapiens)	False
C=CCCOc1cccc(CC(=O)Nc2ccc(CCCCc3nnc(NC(=O)CC=C)s3)nn2)c1	Glutaminase kidney isoform, mitochondrial (Homo sapiens)	False
CCCCC(=O)Nc1nnc(CCCCc2ccc(NC(=O)Cc3cccc(N)c3)nn2)s1	Glutaminase kidney isoform, mitochondrial (Homo sapiens)	False
CCCCC(=O)Nc1nnc(CCCCc2ccc(NC(=O)Cc3cccc(OCC)c3)nn2)s1	Glutaminase kidney isoform, mitochondrial (Homo sapiens)	False
CCCCCCNc1cccc(CC(=O)Nc2ccc(CCCCc3nnc(NC(=O)CCCC)s3)nn2)c1	Glutaminase kidney isoform, mitochondrial (Homo sapiens)	False
C=CCCCOc1cccc(CC(=O)Nc2nnc(CCCCc3ccc(NC(=O)CC=C)nn3)s2)c1	Glutaminase kidney isoform, mitochondrial (Homo sapiens)	False
